Reported neutralization IC50 is given for each of the following binders.
target: HIV-1 Env of 6535.3 (HIV-1); test: cell-based or functional assay

[
  {
    "BINDER": "CAP256-VRC26.08 (antibody, V domains shown) VH: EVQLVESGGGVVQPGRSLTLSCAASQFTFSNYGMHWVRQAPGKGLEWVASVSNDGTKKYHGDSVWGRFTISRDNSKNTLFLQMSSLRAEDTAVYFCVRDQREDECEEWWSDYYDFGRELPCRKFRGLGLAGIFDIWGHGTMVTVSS VL: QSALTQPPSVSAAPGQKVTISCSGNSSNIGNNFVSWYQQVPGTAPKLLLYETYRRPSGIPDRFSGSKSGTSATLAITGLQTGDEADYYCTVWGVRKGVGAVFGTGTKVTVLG",
    "neutralization IC50": "> 50 µg/mL"
  },
  {
    "BINDER": "CAP256-VRC26.12 (antibody, V domains shown) VH: EVQLVQSGGGVVQPGRSLRLSCAAPYFEFGRYGFHWVRQAPGKGLEWVASISFAGRDYYHSPSVWGRFTISRDNSKNTLYLQMNSLRIEDTALYFCARDLRESECEEWESDYYDFGKKGPCVKPRGVAGGLDLWGQGTMVIVSS VL: QSVLTQPPSVSTAPGQTVTVSCSGGTSNTGNNFVSWYQHLPGTAPKLLIYENNKRPLGVPDRFSGAKSGTSATLAITGLQTGDEGDYYCATWSGSLNIGTGTKVSVLG",
    "neutralization IC50": "> 50 µg/mL"
  }
]
